Measured GI50 accompanies every entry in the list below.
test system: COLO 205; experiment: NCI tumour cell line growth inhibition, 48 h
Active and inactive are the calls of the source. No stated cut-off is given here; in the data, active = GI50 up to about 1.1 µM and inactive = higher.

Below: 5 compounds and their reported GI50.
Data request, read-out GI50, for COc1cc(/C=N\NC(=O)C[N+](C)(C)C)cc(OC)c1OC > 10 µM (inactive)

For the compound Oc1ccc(C(O)(c2ccccc2)c2ccccc2)c2ccccc12 , what GI50 is on record? 3.44 µM (inactive)

Which GI50 value belongs to CCCCCCCCCCCCCCCCCCOCC(CO[PH](=O)O)OCCCCCCCCCCCCCCCCCC (centres undefined) ? > 50 µM (inactive)

Dear colleague, I am looking for the recorded GI50 of the following compound: O=C(/C=C/c1ccc([N+](=O)[O-])cc1)c1nc2ccccc2[nH]1 58.7 µM (inactive)

Could you share which GI50 value was measured for NC1=NCCN1CC(=O)O [CYCLOCREATINE] ? > 1000 µM (inactive)

---
Find the recorded GI50 belonging to Cc1[nH]c(=O)nc(N/N=C/c2ccc(O)cc2)c1C(=O)Nc1ccc(Cl)cc1 and report it. > 100 µM (inactive)

Need GI50 of CN1C(=O)C2(C=CC(O)CC2)c2ccccc21 (centres undefined) , thanks. > 100 µM (inactive)

What measured GI50 goes with Cc1cc2c(cc1Cl)SC(NNC(=O)c1ccccc1)=NS2(=O)=O ? > 10 µM (inactive)

Which measured GI50 value corresponds to CC1(c2ccc[n+](Cc3ccccc3)c2)OCCO1 ? > 100 µM (inactive)

###

// values below are reported GI50
test system: HCT-15
The answer is to be given in µM; state only the numeric part.

GI50 of CNS(=O)(=O)c1ccc2c(c1)/C(=C1/Nc3ccccc3C1=O)C(=O)N2 on HCT-15? 49.4

Give the reported GI50 for COc1ccc(-c2nc(O)c3ccccc3n2)cc1OC (system: HCT-15). 50

Continuing:
Provide value of GI50 for this record tested with HCT-15: CCCCC/C=C1\CC(CO)(COC(=O)CC(C(C)C)C(C)C)OC1=O (stereo unspecified) 19.9

###

test system: CCRF-CEM; test: NCI tumour cell line growth inhibition, 48 h
Calls of active or inactive are those of the source. No stated cut-off is given here; in the data, active = GI50 up to about 1.1 µM and inactive = higher.
measure: GI50

Return reported GI50; argument: CCc1c[n+]([O-])c(C)cc1[N+](=O)[O-] > 100 µM (inactive)

New cases:
Looking for the measured GI50 of N#CC(=C1CCCCC1)c1nc2ccccc2o1 , can you help? 49.1 µM (inactive)

What value of GI50 has been reported for the following compound? CCOc1cc(NC(C)=O)ccc1C(=O)NN1C(=O)C(Cl)C1c1ccccc1 (centres undefined) 2.67 µM (inactive)

Please look up its GI50: O=C1/C(=C/c2ccc3c(c2)CCC3)Cc2cc3c(cc21)CCC3 > 100 µM (inactive)

For CCCCCCCCCCCCCC1=C(O)C(=O)C(CC2=C(O)C(=O)C(CCCCCCCCCCCCC)=C(O)C2=O)=C(O)C1=O , what is its reported GI50? 98.2 µM (inactive)

// returns reported GI50 for input C=C1c2nc3ccccc3n2C=C(c2ccc(C)cc2)N1c1ccccc1 3.3 µM (inactive)

Request the reported GI50 associated with Oc1ccccc1C(Sc1nc2ccccc2s1)Sc1nc2ccccc2s1 26.5 µM (inactive)

// query GI50 value for entry CN1C(=O)C2(C=CC(O)CC2)c2ccccc21 (centres undefined) > 100 µM (inactive)

GET /values?readout=GI50&item= CCCCOc1ccc(S(=O)(=O)/N=C(\NN)Nc2ccc(Cl)cc2)cc1 20 µM (inactive)
